Assay Notes: Pharmacokinetics (oral bioavailability, IV parameters)
Condition Summary: mouse, in vivo; C57BL/6 mice, IV administration 1 mg/kg; read-out: volume of distribution
Measurement Kind: Vd (L/kg)

1 = O=C(O)CSc1nc2cc(-c3ccc(-c4ccccc4O)cc3)c(Cl)cc2[nH]1 [Compound A1]
2 = O=C(O)CSc1nc2nc(-c3ccc(-c4ccccc4O)cc3)c(Cl)cc2[nH]1 [Compound 1]
[in] For the pair 1 and 2 , which member has the lower Vd number? # answer = label of selected item
[out] 2

###

System: BCRP (Homo sapiens (Human), UniProt Q9UNQ0)
Sequence (Q9UNQ0 whole entry): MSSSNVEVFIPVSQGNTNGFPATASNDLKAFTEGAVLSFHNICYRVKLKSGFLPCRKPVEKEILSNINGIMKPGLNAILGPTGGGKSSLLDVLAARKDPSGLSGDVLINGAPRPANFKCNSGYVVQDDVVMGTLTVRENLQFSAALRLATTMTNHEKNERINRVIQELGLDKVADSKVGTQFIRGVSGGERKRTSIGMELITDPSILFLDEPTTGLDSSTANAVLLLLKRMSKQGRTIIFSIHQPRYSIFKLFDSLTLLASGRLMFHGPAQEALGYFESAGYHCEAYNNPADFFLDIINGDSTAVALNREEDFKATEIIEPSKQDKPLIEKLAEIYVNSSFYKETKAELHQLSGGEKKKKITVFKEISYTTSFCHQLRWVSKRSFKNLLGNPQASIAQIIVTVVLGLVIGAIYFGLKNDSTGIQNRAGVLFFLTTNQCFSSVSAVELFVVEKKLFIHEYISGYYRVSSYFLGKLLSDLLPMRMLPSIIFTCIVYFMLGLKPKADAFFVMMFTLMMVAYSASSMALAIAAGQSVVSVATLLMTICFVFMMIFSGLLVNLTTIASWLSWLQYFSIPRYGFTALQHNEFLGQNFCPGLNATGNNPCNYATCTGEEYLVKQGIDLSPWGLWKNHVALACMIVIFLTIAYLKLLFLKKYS
Assay Notes: in vitro
Assay type: in vitro ADME
Condition Summary: human, Caco-2, pH 7.4, Mean Papp (10^−6 cm/s) A to B
Procedure: Caco-2 cells purchased from ATCC were seeded onto […] (PET) in 96-well BD Insert plates at 1×10^5 cells/cm^2, and refreshed medium every 4-5 days until to the 21st to 28th day for confluent cell monolayer formation. The transport buffer in the study was HBSS with 10 mM HEPES at pH 7.40±0.05. […] Concentrations of test and control compounds in starting solution, donor solution, and receiver solution were quantified by LC/MS/MS, using peak area ratio of analyte/internal standard.
Measurement Kind: Papp A→B at 2 h, 2 μM (nm/s)
Value expressed in nm/s; do not type the unit.

[in] Provide only the value of recorded Papp A→B at 2 h, 2 μM for COCCc1ccc(OCC(O)CNC(C)C)cc1 (stereo not shown) [metoprolol, reference compound]
[out] 147
